For each of the molecules below, state its growth inhibition.
System: DIPGX7 (H3.3 K27M diffuse intrinsic pontine glioma line)
Experiment: growth inhibition (% activity, log2 RLU normalised to DMSO / staurosporine); higher = more growth inhibition
Details: 33 µM
Give just the numeric value; % need not be written.

Sure, the documented growth inhibition for "Cc1ccc(C)c(OCCCC(C)(C)C(=O)O)c1" is 0.0111

Sure, the documented growth inhibition for "O=C(N/N=C/c1ccc([N+](=O)[O-])o1)c1ccc(O)cc1" is 4.79

Sure, the documented growth inhibition for "O=c1[nH]cc(F)c(=O)[nH]1" is 2.93

Sure, the documented growth inhibition for "C[C@@H](Oc1cc(-c2cnn(C3CCNCC3)c2)cnc1N)c1c(Cl)ccc(F)c1Cl" is 9.03

Sure, the documented growth inhibition for "COC(=O)Nc1nc2cc(C(=O)c3ccc(F)cc3)ccc2[nH]1" is 3.54

Sure, the documented growth inhibition for "Cc1cc2c(s1)Nc1ccccc1N=C2N1CCN(C)CC1" is 1.48

Sure, the documented growth inhibition for "CCN[C@H]1C[C@H](C)S(=O)(=O)c2sc(S(N)(=O)=O)cc21" is 1.05

Sure, the documented growth inhibition for "NC(=O)CC[C@H](N)C(=O)O" is -0.27

Sure, the documented growth inhibition for Cc1ncc([N+](=O)[O-])n1CC(O)CCl (stereo not drawn) is 3.64

Sure, the documented growth inhibition for "CN(C/C=C/c1ccccc1)Cc1cccc2ccccc12" is -0.0716

Sure, the documented growth inhibition for "C[C@H]1NC(=O)NC1=O" is -1.69

Sure, the documented growth inhibition for "CCOC(=O)[C@H](CCc1ccccc1)N[C@@H](C)C(=O)N1Cc2ccccc2C[C@H]1C(=O)O" is 3.28

Sure, the documented growth inhibition for "Cc1cccn2c(=O)c(-c3nnn[nH]3)cnc12" is -0.946

Sure, the documented growth inhibition for "CC(C)[C@H](N)C(=O)OCCOCn1cnc2c(=O)nc(N)[nH]c21" is -1.22

Sure, the documented growth inhibition for "O=NO" is -0.944

Sure, the documented growth inhibition for "CN1C(C(=O)Nc2ccccn2)=C(O)c2sc(Cl)cc2S1(=O)=O" is -2.4

Sure, the documented growth inhibition for "CNCC[C@@H](Oc1ccccc1C)c1ccccc1" is 2.36

Sure, the documented growth inhibition for "OC(CCN1CCCCC1)(c1ccccc1)c1ccccc1" is -0.768

----------
Test system: HGGX6 (H3.3 G34R paediatric high-grade glioma line)
Assay: growth inhibition (% activity, log2 RLU normalised to DMSO / staurosporine); higher = more growth inhibition
Details: 33 µM
reported endpoint: growth inhibition (%)
Give just the numeric value; % need not be written.

Sure, the documented growth inhibition for C[C@H]1O[C@H](O[C@H]2[C@H](O)[C@@H](O)[C@@H](O[C@H]3[C@H](O)[C@@H](O)C(O)O[C@@H]3CO)O[C@@H]2CO)[C@H](O)[C@@H](O)[C@@H]1N[C@H]1C=C(CO)[C@@H](O)[C@H](O)[C@H]1O (stereo partly drawn) is -0.366

Sure, the documented growth inhibition for "Nc1nc(Cl)nc2c1ncn2[C@@H]1O[C@H](CO)[C@@H](O)[C@@H]1F" is 12.5

Sure, the documented growth inhibition for "COc1ccc2cc(CCC(C)=O)ccc2c1" is -2.89

Sure, the documented growth inhibition for "C[C@@H]1C[C@H]2[C@@H]3CCC4=CC(=O)C=C[C@]4(C)[C@@]3(Cl)[C@@H](O)C[C@]2(C)[C@@]1(OC(=O)c1ccco1)C(=O)CCl" is 4.28

Sure, the documented growth inhibition for "CCOC(=O)C1=C[C@@H](OC(CC)CC)[C@H](NC(C)=O)[C@@H](N)C1" is 0.263

Sure, the documented growth inhibition for "N#C[C@@H]1C[C@@H]2C[C@@H]2N1C(=O)[C@@H](N)C12CC3CC(CC(O)(C3)C1)C2" is 2.65

Sure, the documented growth inhibition for O=C1CCC(N2C(=O)c3ccccc3C2=O)C(=O)N1 (stereo not drawn) is -1.64

Sure, the documented growth inhibition for "COc1ccc(CN2CCN(C(c3ccc(F)cc3)c3ccc(F)cc3)CC2)c(OC)c1OC" is 4.43

Sure, the documented growth inhibition for "COc1cc2c(cc1Cc1cccc(Cl)c1F)c(=O)c(C(=O)O)cn2[C@H](CO)C(C)C" is 0.0329

Sure, the documented growth inhibition for "O=NN(CCCl)C(=O)NC1CCCCC1" is 0.392

Sure, the documented growth inhibition for CCCCC(CC)CN=C(N)N=C(N)NCCCCCCNC(N)=NC(N)=NCC(CC)CCCC (stereo not drawn) is 59.5

Sure, the documented growth inhibition for "Cc1nnc(NS(=O)(=O)c2ccc(N)cc2)s1" is -1.19

Sure, the documented growth inhibition for "CC(=O)O[C@@]12CO[C@@H]1C[C@H](O)[C@@]1(C)C(=O)[C@H](O)C3=C(C)[C@@H](OC(=O)[C@H](O)[C@@H](NC(=O)OC(C)(C)C)c4ccccc4)C[C@@](O)([C@@H](OC(=O)c4ccccc4)[C@H]21)C3(C)C" is 15.8

Sure, the documented growth inhibition for "Nc1nc2n[nH]nc2c(=O)[nH]1" is 13.7

Sure, the documented growth inhibition for "C[C@]12C=CC(=O)C=C1CC[C@@H]1[C@@H]2C(=O)C[C@@]2(C)[C@H]1CC[C@]2(O)C(=O)CO" is -3.12

Sure, the documented growth inhibition for "NC(=O)c1ncn([C@@H]2O[C@H](CO)[C@@H](O)[C@H]2O)n1" is 0.756

Sure, the documented growth inhibition for "Cc1onc(-c2c(Cl)cccc2Cl)c1C(=O)N[C@@H]1C(=O)N2[C@@H]1SC(C)(C)[C@@H]2C(=O)O" is 1.63

Sure, the documented growth inhibition for "O=C1Cc2cc(CCN3CCN(c4nsc5ccccc45)CC3)c(Cl)cc2N1" is 2.44

Sure, the documented growth inhibition for "CC1(C)S[C@@H]2[C@H](NC(=O)[C@H](NC(=O)N3CCNC3=O)c3ccccc3)C(=O)N2[C@H]1C(=O)O" is -0.0472

Sure, the documented growth inhibition for "CCCc1nc2c(C)cc(-c3nc4ccccc4n3C)cc2n1Cc1ccc(-c2ccccc2C(=O)O)cc1" is -1.06

Sure, the documented growth inhibition for "C[C@@H]1[C@H](O)[C@@H](C)/C=C/C=C/C=C/C=C/C=C/C=C/C=C/[C@H](O[C@@H]2O[C@H](C)[C@@H](O)[C@H](N)[C@@H]2O)C[C@@H]2O[C@](O)(C[C@@H](O)C[C@@H](O)[C@H](O)CC[C@@H](O)C[C@@H](O)CC(=O)O[C@H]1C)C[C@H](O)[C@H]2C(=O)O" is 3.13

Sure, the documented growth inhibition for "O=C(O)c1cc(/N=N/c2ccc(S(=O)(=O)Nc3ccccn3)cc2)ccc1O" is 1.04

Sure, the documented growth inhibition for "CSc1nc2cc(Cl)c(Oc3cccc(Cl)c3Cl)cc2[nH]1" is 3.1
